System: RPMI-8226
Assay: NCI tumour cell line growth inhibition, 48 h
Calls of active or inactive are those of the source. Rule as the data show it: active = GI50 up to about 1.1 µM and inactive = higher.
Form entry, call: pick from true for active, false for inactive

Answered cases to consult:
compound | category label
O=c1[nH]/c(=C/c2ccc(OCc3ccccc3)cn2)c(=O)[nH]/c1=C/c1ccc(O)cc1 | true
COc1ccc(C(OCC2OC(n3ccc(NC(=O)c4ccccc4)nc3=O)C(O)C2O)(c2ccccc2)c2ccccc2)cc1 (centres undefined) | false
CC(=O)O[C@H]1CCC2[C@@H]3CC[C@]4(C)CC(=O)C=C[C@]4(C)C3CC[C@@]21C (some centres undefined) | false

Data request: Each compound tested received a call. Report the one for COc1cc(C2c3cc4c(cc3[C@@H](NCCN3CCCCC3)C3COC(=O)[C@H]23)OCO4)cc(OC)c1O (some centres undefined) .
Data returned: true

Data request: Fill in: this test's call for C/C(=N\NC(=S)N1CCN(c2ccccn2)CC1)c1ncccn1 is ___
Data returned: true

Data request: Write down the call the test reported for this compound. Item: N#Cc1cc([N+](=O)[O-])ccc1NC(=O)C(=O)Nc1n[nH]c(N)n1
Data returned: false

Data request: Hey, what did the test say about CSc1ccc2c(cc1=O)[C@@H](NC(=O)c1ccc(N)cc1)CCc1cc(O)c(O)c(O)c1-2 ?
Data returned: false

Data request: Which outcome was entered for the compound N=C(N)c1ccc(/N=N/c2c(O)ccc3cc(O)ccc23)cc1 in this test?
Data returned: false

Data request: Tell me the recorded outcome of this test for CCOc1cc(/C=C/C=C/C=C/c2ccc(N(C)C)cc2)[s+]c2ccccc12 .
Data returned: false

Data request: Dear all, I need the recorded test outcome for CCCCCCCCC(=O)CCCCCCCCC(=O)O , thank you.
Data returned: false

Data request: What is the recorded call for this compound in the test? COc1ccc(/C=C2/CCS(=O)(=O)c3ccc(C)cc3C2=O)cc1OC
Data returned: false

Data request: # lookup: test call for C/C(C=O)=C/[C@@]1(C)O[C@@H](C)[C@@](C)(O)[C@@H]1O
Data returned: false

Data request: Hello, I am checking results. What call was entered for COC(=O)[C@H](Cc1c[nH]c2ccccc12)NC(=O)OCC1OC(n2cc(C)c(=O)[nH]c2=O)CC1N=[N+]=[N-] (some centres undefined) ?
Data returned: false

Data request: Identify the outcome logged in this assay for the compound shown: CC(Cc1ccccc1)N(C)Cc1nc(C2CCC([N+](=O)[O-])O2)no1 (centres undefined)
Data returned: false

----------
Parameter GI50: see the listing below.
System: M19-MEL
Test: NCI tumour cell line growth inhibition, 48 h
Calls of active or inactive are those of the source. No stated cut-off is given here; in the data, active = GI50 up to about 1.1 µM and inactive = higher.

Sample records with GI50:
compound | endpoint result
NC(S)=Nc1cc(Cl)ccc1Cl | > 100 µM (inactive)
O=C1NCCS(=O)(=O)N2CCC[C@@H]12 | > 100 µM (inactive)

Data request: # query: GI50 of entry CCCCCCCCCCCCCCCCOP(=O)(O)Oc1ccc(/C=C\c2ccc(OP(=O)(O)OCCCCCCCCCCCCCCCC)cc2)cc1
Data returned: 38.7 µM (inactive)

Data request: Tell me the measured GI50 of COc1ccc(/C=C/CN(C)CCc2ccccc2)cc1OC , please.
Data returned: > 100 µM (inactive)

Data request: Which GI50 reading was recorded for the compound Nc1ccccc1C(=O)/C=C/c1ccccc1O ?
Data returned: 72.3 µM (inactive)

Data request: Quick check: GI50 of CC(=O)NNc1nc(C)c(C(=O)/C=C/c2ccc(NC(C)=O)cc2)s1 ?
Data returned: > 100 µM (inactive)

Data request: Reported GI50, compound N#Cc1cc([N+](=O)[O-])ccc1NC(=O)C(=O)Nc1n[nH]c(N)n1 : ____
Data returned: > 100 µM (inactive)

Data request: I would be grateful if you could share the reported GI50 for N#Cc1nc(Nc2cccc3ccccc23)sc1N .
Data returned: 28.5 µM (inactive)

Data request: Look up GI50 for this compound: O=C(C=C1SCCS1)/C=C\c1ccc(Cl)cc1
Data returned: > 100 µM (inactive)

----------
Test system: OVCAR-5
Assay: NCI tumour cell line growth inhibition, 48 h
The source made the active and inactive calls. No stated cut-off is given here; in the data, active = GI50 up to about 1.1 µM and inactive = higher.
// one of active, inactive, no free text

compound | target under test | category label
COP(=O)(OC)/C(=C\c1cn(C(c2ccccc2)(c2ccccc2)c2ccccc2)cn1)NC(C)=O | OVCAR-5 | inactive

Data request: Each compound tested received a call. Report the one for COc1ccc(C)cc(O)c1=O .
Data returned: inactive

Data request: I would be grateful if you could indicate the recorded call for CCOP(=O)(OCC)[C@]12C[C@@H](C)C=C[C@H]1COC2=O .
Data returned: inactive

Data request: Answer briefly: the call reported for O=C(N/N=C\C(F)(F)F)c1ccncc1 in this assay.
Data returned: inactive

Data request: For Clc1ccc(-c2cn3c(nc4ccccc43)c(/C=C/c3cccs3)n2)cc1 , which call appears in the assay record?
Data returned: inactive

Data request: In this assay, the call recorded for Cc1ccc(NCC(=O)N2CC(=O)Nc3ccccc32)c(C)c1 was what?
Data returned: inactive

Data request: What did this assay record as the result for Cc1ccc(S(=O)(=O)N/N=c2/sc3ccccc3n2C)cc1 ?
Data returned: inactive

Data request: For this compound, state the assay outcome: OC(c1ccccc1)(c1ccccc1)c1ccncc1
Data returned: inactive

Data request: Can you look up the reported call for C[C@@H]1C[C@@H]2C(=O)N(c3ccccc3)C(=O)[C@@H]2c2[nH]c3ccc(Br)cc3c21 for me?
Data returned: inactive

Data request: What was the test verdict on CC(C)(O)C1COC2=C1C(=O)c1ccccc1C2=O (stereo unspecified) ?
Data returned: inactive

Data request: What did the test return for CCN(CC)c1ccc2cc(C(=O)Nc3ccc4[nH]c(C(=O)N5C[C@@H](CCl)c6c5cc(OC(=O)Nc5ccccc5)c5[nH]cc(C)c65)cc4c3)oc2c1 ?
Data returned: active

----------
System: UACC-62
Test: NCI tumour cell line growth inhibition, 48 h
The source made the active and inactive calls. Cut-off read from the data, not from the text of the source: active = GI50 up to about 1.1 µM and inactive = higher.
Recorded measurements of GI50, one per entry

Some solved entries appear below for comparison.
compound | target under test | GI50
O=c1[nH]/c(=C/c2ccc(OCc3ccccc3)cn2)c(=O)[nH]/c1=C/c1ccc(O)cc1 | UACC-62 | 1.58 µM (inactive)
Cc1ccc(S(=O)(=O)n2c(-c3ccccc3)c(-c3ccccc3)c3ccccc32)cc1 | UACC-62 | > 100 µM (inactive)
N#Cc1nc(Cc2cccs2)oc1N | UACC-62 | > 100 µM (inactive)
CCOC(=O)c1cc(Br)c(-c2cc(C)co2)[nH]1 | UACC-62 | > 100 µM (inactive)
CC(=O)NC(Cc1ccsc1)C(=O)O (stereo not drawn) | UACC-62 | > 100 µM (inactive)
C[C@@H]1C[C@](O)([C@@H](C)Cl)C(=O)O[C@@H]2CCN3CC=C(COC(=O)[C@]1(C)O)[C@H]23 | UACC-62 | > 100 µM (inactive)
CCOC(=O)c1c[nH]c2c(Sc3ccccc3)nccc2c1=O | UACC-62 | 36.7 µM (inactive)
COc1ccc(/C=C2\CCC(C)c3c2nc(N)c(C#N)c3-c2ccc(OC)c(OC)c2)cc1OC (stereo not drawn) | UACC-62 | 88.1 µM (inactive)

Data request: For the compound shown here, CC(=O)NC(CCCNCc1ccccc1)C(=O)NCc1ccccc1 (stereo not drawn) , give the reported GI50.
Data returned: > 100 µM (inactive)

Data request: Look at this compound and give its reported GI50. COC(C)C(O)(C(=O)OCC1=CCN2CCC(O)C12)C(C)(C)O (stereo not drawn)
Data returned: > 100 µM (inactive)

Data request: Data request, read-out GI50, for O=C(CSc1nc2ccc(I)cc2c(=O)n1Cc1ccccc1)NNC(=O)c1ccccc1
Data returned: 14.2 µM (inactive)

Data request: May I ask what GI50 has been recorded for O=C(C=C1SCCS1)/C=C\c1ccc(Cl)cc1 ?
Data returned: 99.8 µM (inactive)

Data request: I would be grateful if you could share the reported GI50 for Cc1ccc(N(O)C(C)(C)C)cc1 .
Data returned: > 100 µM (inactive)

----------
System: SN12C
Assay: NCI tumour cell line growth inhibition, 48 h
Active and inactive are the calls of the source. No stated cut-off is given here; in the data, active = GI50 up to about 1.1 µM and inactive = higher.
Recorded GI50, one value per entry.

Data request: Sample COc1cc2c(cc1OC)C1[C@@H](c3ccccc3)OCN1CC2 (stereo partly drawn) — what was its GI50?
Data returned: > 100 µM (inactive)

Data request: Fill blank: measured GI50 of the compound CN(C)Cc1cc(/C=C/C(=O)c2ccc(Br)cc2)cc(CN(C)C)c1O is ____.
Data returned: 15.6 µM (inactive)

Data request: Fill in: GI50 of Cc1nc2sc(CCl)nn2c(=O)c1Cl is ___
Data returned: 12.3 µM (inactive)

----------
System: SR
Test: NCI tumour cell line growth inhibition, 48 h
Calls of active or inactive are those of the source. No stated cut-off is given here; in the data, active = GI50 up to about 1.1 µM and inactive = higher.
assay readout: GI50

Solved cases below.
molecule | endpoint result
COc1ccccc1/C=N/C12CC3CC(CC(C3)C1)C2 | > 100 µM (inactive)
CC(C)C1NC(=O)[C@H](C)OC(=O)[C@@H](C(C)C)NC(=O)[C@@H](C)OC(=O)C(C(C)C)NC(=O)[C@H](C)OC1=O (stereo not given in full) | 29.8 µM (inactive)
CCN(CC)C(=S)SS(=O)(=O)c1ccccc1C(=O)O | 3.6 µM (inactive)
O=C(N/N=C\C(F)(F)F)c1ccncc1 | 35.2 µM (inactive)

Here is another molecule to look at.
Data request: Entry under review: Cc1cc(C)c2c(c1)C(=O)/C(=C/c1ccccc1C(=O)O)C2 . Reported GI50?
Data returned: 62.4 µM (inactive)

These measurements were taken from ChEMBL document CHEMBL1201862.
